Recorded melting point for the following compounds

Consider the following illustrative entries.
COMPOUND: COc1ccc(C(O)COc2ccc(C(=O)O)c(O)c2)cc1C12CC3CC(CC(C3)C1)C2 (configuration not stated)
OBSERVED VALUE: 178 to 179 °C
//
COMPOUND: O=[N+]([O-])c1ccc2oc(-c3ccc(Cl)cc3)nc2c1
OBSERVED VALUE: 217 to 218 °C

Prompt: GET /values?readout=melting point&item= "O=c1[nH]cnc2cc(Cl)sc12"
Response: 238 to 239 °C

Prompt: Dear colleague, I am looking for the recorded melting point of the following compound: "CC1(C)C=C(c2ccccn2)c2cc(-c3ccccc3)ccc2OC1"
Response: 115 to 120 °C

Prompt: Dear colleague, I am looking for the recorded melting point of the following compound: COc1cc(NC(=O)Nc2cccc3c2C2CC(OC)CCN2C3=O)nc2ccccc12 (configuration not stated)
Response: > 260 °C

Prompt: Look at this compound and give its reported melting point. C[C@@H]1Cc2ccsc2[C@H](C)N1CCNC(=O)c1ccccc1N (relative stereo)
Response: 89 to 94 °C

Prompt: # input compound: CC(C#CCOc1cccc(Oc2ccccc2)c1)N(O)C(N)=O (configuration not stated) ; wanted: its melting point
Response: 98 to 100 °C

Prompt: Can you share its melting point? I mean this compound: CC(=O)OC1CSC(Oc2cccc(-c3c(C)n[nH]c3C)c2)C(OC(C)=O)C1OC(C)=O (configuration not stated)
Response: 195 °C

---

Let's look at some compounds and their measured melting point.

COMPOUND: CCOC(=O)c1cnc(Nc2ccccc2F)[nH]c1=O
melting point: 250 to 252 °C
//
COMPOUND: CCOC(=O)COc1ccc(CC2SC(=O)NC2=O)cc1 (centres undefined)
melting point: 105 to 106 °C
//
COMPOUND: Cc1cc(C(F)(F)F)nc(OCC2CO2)c1C(=O)C1=C(O)C2CCC(C2)C1=O (centres undefined)
melting point: 54 to 56 °C

Turning now to a further compound:
Prompt: I would be grateful if you could share the reported melting point for CC(O)COc1ccc(Oc2cccc(F)c2)cc1 (centres undefined) .
Response: 37 to 39 °C

---

We begin with a simple list: items and their reported melting point.

Examples with answers:
MOLECULE: Fc1ccccc1COc1cccnc1NC(=S)Nc1ccc(Cl)cc1
melting point: 141 °C

MOLECULE: CCOC(C)c1ccc(OCCCN2CCC(c3noc4cc(F)ccc34)CC2)c(OC)c1 (stereo not drawn)
melting point: 139 °C

MOLECULE: CCOC(=O)C1=C(COCCNC(=O)N2CCN(C)CC2)NC(C)=C(C(=O)OC)C1c1ccccc1Cl (stereo not drawn)
melting point: 78 to 80 °C

MOLECULE: Clc1cc(N2CCNCC2)ccn1
melting point: 119 to 120 °C

MOLECULE: COc1ccc(N(c2ccc(OC)cc2)c2ccc(-c3ccc(N(c4ccc(OC)cc4)c4ccc5ccc6cccc7ccc4c5c67)cc3)cc2)cc1
melting point: 211 to 213 °C

MOLECULE: CCSC(C#N)C1=NCCc2cc(OC)c(OC)cc21 (stereo not drawn)
melting point: 113 to 115 °C

MOLECULE: CNC(Cc1ccccc1NC(=O)C(C)(C)C)c1cccs1 (stereo not drawn)
melting point: 78.5 to 82 °C

Turning to the following molecule.
Prompt: Request the reported melting point associated with "CSc1ccc(-n2cnc3ccc(-c4nnc(C)o4)cc32)cc1"
Response: 202 to 204 °C
